Cited source: the supplement of paper PMC5908809

percent inhibition of viability values, listed per item
- System: KHYG-1 (IL-2 2.5 ng/mL)
- Experiment: percent inhibition of viability; higher = more inhibition
- Assay conditions: 72 h; 10 nM
Observed property: percent inhibition of viability (%)

COc1cc2c(Oc3ccc4[nH]c(C)cc4c3F)ncnc2cc1OCCCN1CCCC1 [Cediranib] (max concentration tested 1000 nM) | 0.25
Cn1cc(-c2ccc3nnc(C(F)(F)c4ccc5ncccc5c4)n3n2)cn1 (max concentration tested 10000 nM) | 1.87
Nc1ncn([C@H]2C[C@H](O)[C@@H](CO)O2)c(=O)n1 [Decitabine] (max concentration tested 10000 nM) | 1.27
CS(=O)(=O)OCCCCOS(C)(=O)=O [Busulfan] (max concentration tested 100000 nM) | -5.97
O=c1[nH]cc(F)c(=O)[nH]1 [Fluorouracil] (max concentration tested 10000 nM) | -7.58
Cn1cnc2c(F)c(Nc3ccc(Br)cc3F)c(C(=O)NOCCO)cc21 [Binimetinib] (max concentration tested 1000 nM) | 0.25
Nc1nc(N)c2nc(-c3cccc(O)c3)c(-c3cccc(O)c3)nc2n1 [TG100-115] (max concentration tested 10000 nM) | 4.75

###

- Test system: NK-YS (IL-2 2.5 ng/mL)
- Experiment: percent inhibition of viability; higher = more inhibition
- Assay conditions: 72 h; 10000 nM
Observed property: percent inhibition of viability (%)

Cc1ccc(NC(=O)c2ccc(CN3CCN(C)CC3)cc2)cc1Nc1nc(-c2cccnc2)cs1 [Masitinib] (max concentration tested 10000 nM) | 98.2
CCn1c(=O)c(-c2cc[nH]n2)cc2c(C)nc(N)nc21 [Voxtalisib] (max concentration tested 10000 nM) | 69.5
CCCCc1nc2cc(/C=C/C(=O)NO)ccc2n1CCN(CC)CC [Pracinostat] (max concentration tested 10000 nM) | 106
O=C(Nc1cccc(C(F)(F)F)c1)Nc1cc(S(=O)(=O)NC2CC2)ccc1-c1ccsc1 [AGI-6780] (max concentration tested 10000 nM) | 23.1
COC1=CC(c2cc3ccccc3[nH]2)=N/C1=C\c1[nH]c(C)cc1C [Obatoclax] (max concentration tested 10000 nM) | 26.2
CC1(C)CNc2cc(NC(=O)c3cccnc3NCc3ccncc3)ccc21 [Motesanib] (max concentration tested 10000 nM) | 15

###

As shown below, each of these molecules has a reported drug sensitivity score value.
- Test system: SNK-6 (IL-2 2.5 ng/mL)
- Experiment: drug sensitivity score (DSS) (DSS units); higher = more sensitive; extreme values may be limits of the assay
- Assay conditions: 72 h
Observed property: drug sensitivity score

COc1cccc2cc(-c3nc([C@H]4CC[C@H](C(=O)O)CC4)n4ncnc(N)c34)[nH]c12 [OSI-027] (max concentration tested 10000 nM) | 7.2
CCn1cc(-c2ccnc3[nH]c(-c4cccc(CN(C)C)c4)cc23)c(-c2ccc(NC(=O)N(C)C)cc2)n1 (max concentration tested 1000 nM) | 18.6
CCc1cncnc1N1CCN(Cc2nc3ccc(C(F)(F)F)cc3[nH]2)CC1 (max concentration tested 10000 nM) | 6.35
C=CC(=O)N1CCC[C@@H](n2nc(-c3ccc(Oc4ccccc4)cc3)c3c(N)ncnc32)C1 [Ibrutinib] (max concentration tested 1000 nM) | 0
Oc1ccc2c(c1)CC[C@H](c1ccccc1)[C@@H]2c1ccc(OCCN2CCCC2)cc1 [Lasofoxifene] (max concentration tested 1000 nM) | 0
O=C(O)CCCCC(CCSCc1ccccc1)SCc1ccccc1 (stereo unspecified) [CPI-613] (max concentration tested 10000 nM) | 0.07
